Recorded values, source patent US20150104448A1.

# assaySystem: T1, Inactive-C1s (Homo sapiens, UniProt P09871)
# T1 construct: proenzyme (pro-C1s); also called pro-C1s
# T1 sequence (single chain, looked up): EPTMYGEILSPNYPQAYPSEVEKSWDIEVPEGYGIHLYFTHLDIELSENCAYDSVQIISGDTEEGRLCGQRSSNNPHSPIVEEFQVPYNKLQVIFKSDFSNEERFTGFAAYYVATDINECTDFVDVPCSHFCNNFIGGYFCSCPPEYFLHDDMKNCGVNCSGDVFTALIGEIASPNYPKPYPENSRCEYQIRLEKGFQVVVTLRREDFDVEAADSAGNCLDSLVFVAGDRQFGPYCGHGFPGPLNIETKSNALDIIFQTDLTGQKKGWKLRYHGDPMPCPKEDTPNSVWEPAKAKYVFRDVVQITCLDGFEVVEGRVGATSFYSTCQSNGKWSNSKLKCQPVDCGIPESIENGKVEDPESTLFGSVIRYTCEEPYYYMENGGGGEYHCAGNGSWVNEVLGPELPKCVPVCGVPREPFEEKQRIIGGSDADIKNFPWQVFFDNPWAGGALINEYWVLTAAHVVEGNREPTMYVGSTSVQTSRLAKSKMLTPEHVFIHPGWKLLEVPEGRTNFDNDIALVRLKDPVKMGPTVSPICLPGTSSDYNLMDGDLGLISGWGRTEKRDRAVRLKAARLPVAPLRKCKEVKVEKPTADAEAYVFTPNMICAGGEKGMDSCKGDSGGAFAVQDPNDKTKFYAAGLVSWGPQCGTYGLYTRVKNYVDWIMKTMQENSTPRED
# assayNotes: kinetic binding measurement, method not stated; Table 10, pro-C1s
observable: pKd
# pKd: negative log10 of molar concentration; output just the value

These solved cases illustrate the format of a correct answer.
binder	pKd
VH4/Vk2 (antibody, V domains shown, member of group m7; also called VH4/Vκ2; VH variant 4 + Vk variant 2) VH: EVQLVESGGGLVKPGGSLRLSCAASGFTFSNYAMSWVRQAPGKGLEWVATISSGGSHTYYLDSVKGRFTISRDNSKNTLYLQMNSLRAEDTALYYCARLFTGYAMDYWGQGTLVTVSS VL: QIVLTQSPATLSLSPGERATMSCTASSSVSSSYLHWYQQKPGKAPKLWIYSTSNLASGVPSRFSGSGSGTDYTLTISSLQPEDFATYYCHQYYRLPPITFGQGTKLEIK	9.58
VH1/Vk3 (antibody, V domains shown, member of group m7; also called VH1/Vκ3; VH variant 1 + Vk variant 3) VH: EVMLVESGGGLVKPGGSLRLSCAASGFTFSNYAMSWVRQAPGKGLEWVATISSGGSHTYYLDSVKGRFTISRDNSKDTLYLQMSSLRAEDTALYYCARLFTGYAMDYWGQGTSVTVSS VL: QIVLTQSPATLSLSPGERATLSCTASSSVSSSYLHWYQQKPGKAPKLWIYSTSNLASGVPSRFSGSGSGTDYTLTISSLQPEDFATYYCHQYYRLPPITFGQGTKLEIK	9.52
VH1/Vk2 (antibody, V domains shown, member of group m7; also called VH1/Vκ2; VH variant 1 + Vk variant 2) VH: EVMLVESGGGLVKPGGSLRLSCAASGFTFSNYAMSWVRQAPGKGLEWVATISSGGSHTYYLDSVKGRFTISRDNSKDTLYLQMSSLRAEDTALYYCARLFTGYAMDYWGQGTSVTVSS VL: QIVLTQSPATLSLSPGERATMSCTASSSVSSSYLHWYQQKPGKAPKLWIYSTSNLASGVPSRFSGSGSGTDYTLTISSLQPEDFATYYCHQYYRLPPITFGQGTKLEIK	9.64

Requested read-out: pKd. Entry: VH3/Vk2 (antibody, V domains shown, member of group m7; also called VH3/Vκ2; VH variant 3 + Vk variant 2) VH: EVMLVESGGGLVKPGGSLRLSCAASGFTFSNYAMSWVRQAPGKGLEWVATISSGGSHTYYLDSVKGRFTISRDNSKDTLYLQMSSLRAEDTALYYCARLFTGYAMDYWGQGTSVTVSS VL: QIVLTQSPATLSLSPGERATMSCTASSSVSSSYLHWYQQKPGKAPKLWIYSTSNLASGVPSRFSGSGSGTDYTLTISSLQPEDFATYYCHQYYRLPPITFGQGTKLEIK 9.54

Requested read-out: pKd. Entry: VH1/Vk1 (antibody, V domains shown, member of group m7; also called VH1/Vκ1; VH variant 1 + Vk variant 1) VH: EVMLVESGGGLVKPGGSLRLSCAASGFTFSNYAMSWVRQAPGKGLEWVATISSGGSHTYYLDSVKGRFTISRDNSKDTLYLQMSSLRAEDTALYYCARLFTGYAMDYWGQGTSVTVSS VL: QIVLTQSPAILSLSPGERATMSCTASSSVSSSYLHWYQQKPGKAPKLWIYSTSNLASGVPSRFSGSGSGTFYTLTISSLQAEDFATYYCHQYYRLPPITFGQGTKLEIK 9.72
